Reported values of AUC(0-inf) for individual entries
Experiment: Single- and multiple-dose plasma pharmacokinetics of GA and PCA after oral RLQ in healthy subjects
Assay type: in vivo, human
Details: both sexes, human, plasma, oral, 8 g, human plasma, multiple dose RLQ 8 g
PARAMETER: AUC(0-inf) (ng·h/mL)

COMPOUND	UNITS_TEXT	RESULT_NUMBER
O=C(O)c1cc(O)c(O)c(O)c1 [GA, gallic acid]	ng·h/mL	209
O=C(O)c1ccc(O)c(O)c1 [PCA, protocatechuic acid]	ng·h/mL	3.09

###

Experiment: Single- and multiple-dose plasma pharmacokinetics of GA and PCA after oral RLQ in healthy subjects
Type: in vivo, human
Conditions: female, human, plasma, oral, 8 g, single dose RLQ 8 g, female subjects; read-out: AUC0–t in women
PARAMETER: AUC(0-t) (ng·h/mL)

COMPOUND	RESULT_NUMBER
O=C(O)c1cc(O)c(O)c(O)c1 [GA, gallic acid]	301
